Data provenance: PubChem BioAssay AID1347417

assay: qHTS Primary assay for Inhibitors of Plasmodium falciparum Dd2 growth in vitro; further: nearly all actives have a fitted effect of over 65% in size; conditions: P. falciparum Dd2 growth, SYBR Green, 72 h; series mostly up to 28.9 µM
About 5,300 (4.4%) of roughly 120,000 compounds were called active. Not shown: some 22% with an inconclusive outcome. The call rests on the fitted dose curve; in most records, active means well fitted inhibition curve with a large enough effect; inconclusive means small, poorly fitted or top-dose-only effect; inactive means no such curve, though single readings can be large or run the other way. Shown is part of a subset that was picked to be rich in actives.
Outcome codes: class 1 (active), class 0 (inactive)

Molecule: Cc1ccc(CN2CCCC23Cc2ccccc2CNC3=O)cc1C (stereo unspecified)
Label Class: class 0
--
Molecule: CCCCN1C(=O)c2ccccc2C(C(=O)NCCCOC)C12CCCCC2 (stereo unspecified)
Label Class: class 0
--
Molecule: CC(C)C[C@@H]1N[C@H](C(=O)NC(C)C)Cc2c[nH]c3cccc1c23
Label Class: class 0
--
Molecule: O=C(CCc1conc1-c1ccccc1)NCc1ccco1
Label Class: class 0
--
Molecule: Cc1noc(C)c1C(=O)N1CCCC(CCc2ccc(F)cc2F)C1 (stereo unspecified)
Label Class: class 0
--
Molecule: C[S+](=O)([O-])N1Cc2ccccc2CC2(CCN(Cc3cccnc3)CC2)C1
Label Class: class 0
--
Molecule: Cc1nc(N2CCC(NCCNc3ccncc3C)CC2)c2ccsc2n1
Label Class: class 1
--
Molecule: CC(C)c1nc2nccc(-c3ccc4c(c3)OCCCO4)n2n1
Label Class: class 0
--
Molecule: CS(=O)(=O)N1CCC(OC2CCN(C(=O)c3cccc(Cl)c3)CC2)CC1
Label Class: class 0
--
Molecule: CCCNC(=O)C(NC(=O)c1ccc(OC)cc1)C1CCN(C(=O)c2ccc3c(c2)OCO3)CC1 (stereo unspecified)
Label Class: class 0
--
Molecule: Cc1cc(F)ccc1NC(=O)CCC1CCCN(C(=O)c2ccc(Cl)s2)C1 (stereo unspecified)
Label Class: class 0
--
Molecule: CC(=O)N1CCN(c2ccc3nnc(-c4ccc(C)cn4)n3n2)CC1
Label Class: class 0
--
Molecule: Cc1c[nH]c(CN2CCCC(CCc3ccc(F)cc3F)C2)c(C)c1=O (stereo unspecified)
Label Class: class 1
--
Molecule: O=C(O)CCC(=O)N1Cc2[nH]cnc2C[C@H]1c1nc(-c2ccc3ccccc3c2)no1
Label Class: class 0
--
Molecule: O=C(NCc1ccco1)[C@@H]1Cc2nc[nH]c2CN1CCCc1ccccc1
Label Class: class 1
--
Molecule: O=[S+]([O-])(c1ccccc1)N1CC2(CCCCN2Cc2cccnc2)Cc2ccccc21 (stereo unspecified)
Label Class: class 1
--
Molecule: COc1ccc(Cl)cc1NC(=O)c1sc2nc3c(cc2c1N)CN(C)CC3
Label Class: class 0
--
Molecule: N#Cc1cccc(C(=O)NC2CCN(c3cc(-c4ccc(Cl)cc4)[nH]n3)C2)c1 (stereo unspecified)
Label Class: class 0
--
Molecule: CN(C1CCc2nn(C)c(=O)n2CC1)S(=O)(=O)c1ccc2c(c1)OCCO2 (stereo unspecified)
Label Class: class 0
--
Molecule: O=C(Nc1ccc(OC(F)(F)F)cc1)c1cc2c(=O)n3ccccc3nc2s1
Label Class: class 0
--
Molecule: COc1cc(OC)c(NC(=O)Cn2ccn3nc(-c4ccccc4)c(CO)c3c2=O)cc1Cl
Label Class: class 0
